// data source = patent EP0259014A2

Entries and their measured MIC follow.
tested on: Pseudomonas aeruginosa GN 315; experiment: MIC, serial dilution on Mueller Hinton agar; type: cell-based; settings: GN315; Pseudomonas aeruginosa GN 315, resistance mechanism AAC(6'); Mueller Hinton agar, 37°C, 18 hours; read-out: MIC.
RESULT TYPE: MIC

COMPOUND: NC[C@@H]1CC[C@@H](N)[C@@H](O[C@H]2[C@H](F)[C@@H](O[C@H]3O[C@H](CO)[C@@H](O)[C@H](N)[C@H]3O)[C@H](NC(=O)[C@@H](O)CN)C[C@@H]2N)O1 [Compound No. 12]
RESULT: 6.25 µg/mL
//
COMPOUND: NCC[C@H](O)C(=O)N[C@@H]1C[C@H](N)[C@@H](O[C@H]2O[C@H](CN)CC[C@H]2N)[C@H](F)[C@H]1O[C@H]1O[C@H](CO)[C@@H](O)[C@H](N)[C@H]1O [Compound No. 13]
RESULT: 6.25 µg/mL
//
COMPOUND: NC[C@H]1O[C@H](O[C@H]2[C@H](F)[C@@H](O[C@H]3O[C@H](CO)[C@@H](O)[C@H](N)[C@H]3O)[C@H](N)C[C@@H]2N)[C@H](N)[C@@H](O)[C@@H]1O [Compound No. 1, 5-Deoxy-5-fluorokanamycin B]
RESULT: 100 µg/mL
//
COMPOUND: NC[C@H]1O[C@H](O[C@H]2[C@H](O)[C@@H](O[C@H]3O[C@H](CO)[C@@H](O)[C@H](N)[C@H]3O)[C@H](N)C[C@@H]2N)[C@H](N)[C@@H](O)[C@@H]1O [KMB, kanamycin B]
RESULT: 50 µg/mL
//
COMPOUND: NC[C@@H]1C[C@H](O)[C@@H](N)[C@@H](O[C@H]2[C@H](F)[C@@H](O[C@H]3O[C@H](CO)[C@@H](O)[C@H](N)[C@H]3O)[C@H](N)C[C@@H]2N)O1 [Compound No. 3, 5,4'-Dideoxy-5-fluorokanamycin B]
RESULT: 100 µg/mL

----------
Entries and their measured MIC follow.
test system: Escherichia coli JR66/W677; test: microbe, parasite or virus in culture; format: cell-based; conditions: JR66/W677, 18 h

COMPOUND: NCC[C@H](O)C(=O)N[C@@H]1C[C@H](N)[C@@H](O[C@H]2O[C@H](CN)[C@@H](O)[C@H](O)[C@H]2O)[C@H](O)[C@H]1O[C@H]1O[C@H](CO)[C@@H](O)[C@H](N)[C@H]1O [AMK, reference compound]
MEASURED ON: Escherichia coli JR66/W677
MIC, µg/mL: 3.12

COMPOUND: NC[C@@H]1CC[C@@H](N)[C@@H](O[C@H]2[C@H](F)[C@@H](O[C@H]3O[C@H](CO)[C@@H](O)[C@H](N)[C@H]3O)[C@H](N)C[C@@H]2N)O1
MEASURED ON: Escherichia coli JR66/W677
MIC, µg/mL: 3.12

COMPOUND: NCC(O)C(=O)N[C@@H]1C[C@H](N)[C@@H](O[C@H]2O[C@H](CN)[C@@H](O)C[C@H]2N)[C@H](F)[C@H]1O[C@H]1O[C@H](CO)[C@@H](O)[C@H](N)[C@H]1O (some centres unmarked)
MEASURED ON: Escherichia coli JR66/W677
MIC, µg/mL: 1.56

COMPOUND: NCC[C@H](O)C(=O)N[C@@H]1C[C@H](N)[C@@H](O[C@H]2O[C@H](CN)[C@@H](O)C[C@H]2N)[C@H](F)[C@H]1O[C@H]1O[C@H](CO)[C@@H](O)[C@H](N)[C@H]1O
MEASURED ON: Escherichia coli JR66/W677
MIC, µg/mL: 0.78

COMPOUND: NC[C@@H]1CC[C@@H](N)[C@@H](O[C@H]2[C@H](F)[C@@H](O[C@H]3O[C@H](CO)[C@@H](O)[C@H](N)[C@H]3O)[C@H](NC(=O)[C@@H](O)CN)C[C@@H]2N)O1
MEASURED ON: Escherichia coli JR66/W677
MIC, µg/mL: 1.56
